# System: Saccharomyces cerevisiae
# Experiment: protein stability index of tFT-peptide fusion (C-terminal peptide) (PSI (0-1 scale)); higher = more stable (slower turnover)
# Condition Details: genetic background: wild type; temperature: 30 C
# label = met if protein stability index >= 0.7 else not met

sequence_string=NHRANSNPRLRY assigned_class=met
sequence_string=VCMSLVRGEAGG assigned_class="not met"
sequence_string=LFLPDPHSLTFH assigned_class=met
sequence_string=PRRPLSTPTPLV assigned_class="not met"
sequence_string=MVGLTTEFGSDG assigned_class="not met"
sequence_string=ASLVSPSFLGLV assigned_class="not met"
sequence_string=EAGGRWEVSCQA assigned_class="not met"
sequence_string=GGGVSFWLGVVA assigned_class="not met"
sequence_string=SNERWCGCGLLW assigned_class=met
sequence_string=VNQSCPRPTPFV assigned_class="not met"
sequence_string=HGVTPFFSSSPR assigned_class="not met"
sequence_string=FQEDSPVSQRYP assigned_class="not met"
sequence_string=RFAWLPAPGRIV assigned_class="not met"
sequence_string=YLRACDPPAVHR assigned_class="not met"
sequence_string=GVFGFGARLCIG assigned_class="not met"
sequence_string=KKKKKKKNKKQE assigned_class=met
sequence_string=ARMPQVSEIALC assigned_class="not met"
sequence_string=RNCELQSLSSTL assigned_class=met
sequence_string=FLDYLLFIFFFF assigned_class="not met"
sequence_string=RALPSPRSPLSI assigned_class="not met"
sequence_string=PPPPDPPAPSSP assigned_class=met
sequence_string=LLCYSGVIFGSV assigned_class="not met"
sequence_string=YPPLFLLMRGVL assigned_class="not met"
sequence_string=PGFEPHLKLCAA assigned_class="not met"
sequence_string=LGVGGRWVVPGA assigned_class=met
sequence_string=FLFQYLCIISSL assigned_class="not met"

* * *

# Tested on: Saccharomyces cerevisiae;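 note: PSI is a weighted mean of sequencing reads over stability bins, variants kept only with over 10 reads, mCherry proximal and sfGFP distal, peptide attached via GGGS linker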
# Experiment: protein stability index of tFT-peptide fusion (C-terminal peptide) (PSI (0-1 scale)); higher = more stable (slower turnover)
# Condition Details: genetic background: wild type; temperature: 30 C
Parameter Measured: protein stability index

sequence_string=DSETLLSKEWKQ parameter_measured="protein stability index" value_observed=0.651
sequence_string=AWESVGVWWGDS parameter_measured="protein stability index" value_observed=0.76
sequence_string=THGFKQLTTPLD parameter_measured="protein stability index" value_observed=0.676
sequence_string=GQRWADGGFVEV parameter_measured="protein stability index" value_observed=0.783
sequence_string=RDILFIGINIYK parameter_measured="protein stability index" value_observed=0.585
sequence_string=FIGFGCGLVWSV parameter_measured="protein stability index" value_observed=0.613
sequence_string=WLYGEFGALVVD parameter_measured="protein stability index" value_observed=0.685
sequence_string=RNGFGSWFRWKM parameter_measured="protein stability index" value_observed=0.701
sequence_string=SPCLSWTLVLVL parameter_measured="protein stability index" value_observed=0.302
sequence_string=PLLLFFFPRLLF parameter_measured="protein stability index" value_observed=0.475
sequence_string=ICWSTALDASFG parameter_measured="protein stability index" value_observed=0.725
sequence_string=RGGGWGRKVSVG parameter_measured="protein stability index" value_observed=0.659
sequence_string=GRGRWRGGVAVE parameter_measured="protein stability index" value_observed=0.802
sequence_string=ACGAGFIILLGL parameter_measured="protein stability index" value_observed=0.535
sequence_string=FPHPSPPPFPPP parameter_measured="protein stability index" value_observed=0.698
sequence_string=ALRFLISCRLLD parameter_measured="protein stability index" value_observed=0.626
sequence_string=VSADGAGCAVRG parameter_measured="protein stability index" value_observed=0.709
sequence_string=GESLSLVRIWRK parameter_measured="protein stability index" value_observed=0.625
sequence_string=QCFRYSVFVGRG parameter_measured="protein stability index" value_observed=0.63
